TEST: gradient 5% acetonitrile 3 min, to 50% in 2 min, to 85% in 15 min, held 3 min, 100 µL/min
ASSAY_CONTEXT: column: Zorbax Extend-C18 2.1 x 50 mm; eluents: water / acetonitrile, 0.1% formic acid
Each entry below carries its recorded RP-LC retention time.
Give just the number in s; leave the unit off.

COc1cc(-c2nc(Cn3ccn4nc(-c5ccccc5)cc4c3=O)c(C)o2)cc(OC)c1OC	990
COc1ccc(C2(c3nc(-c4ccc(CNC(=O)C5CC5)s4)no3)CC2)cc1	955
COc1cc(OC)cc(-c2nnc(Cc3nc(-c4ccc(C)cc4)no3)o2)c1	1080
O=C(NCCc1ccccc1)NCCc1ccsc1	764

Field: next compound
Requested field: RP-LC retention time. Item: `CCc1cccc(NS(=O)(=O)c2cc3n(c2)CCN(CC(C)C)C3=O)c1`
852

* * *

Below: a set of entries, each annotated with reported RP-LC retention time.
TEST: gradient 5% acetonitrile 3 min, to 50% in 2 min, to 85% in 15 min, held 3 min, 100 µL/min
ASSAY_CONTEXT: column: Zorbax Extend-C18 2.1 x 50 mm; eluents: water / acetonitrile, 0.1% formic acid
Field: numeric (s). Do not append units.

Consider the following illustrative entries.
CCCN1C(=O)COc2ccc(-c3noc(-c4ccc(NC(C)=O)cc4)n3)cc21	948
Cc1noc(C2CN(C(=O)c3n[nH]c4ccccc34)CC23CCOCC3)n1 (stereo not given)	665
O=C(Cc1ccc(Cl)cc1)N1CCN(c2nc(CN3CCOCC3)cs2)CC1	642
CCCn1cc(S(=O)(=O)Nc2cc(C)cc(C)c2)c2cccnc21	946

// switching to the query compound
Any idea what RP-LC retention time was measured for `Cc1ccc(NC(=O)Cn2nc(C(=O)N3CCCC3)c3ccccc32)cc1Cl` ?
950

* * *

TEST: gradient 5% acetonitrile 3 min, to 50% in 2 min, to 85% in 15 min, held 3 min, 100 µL/min
ASSAY_CONTEXT: column: Zorbax Extend-C18 2.1 x 50 mm; eluents: water / acetonitrile, 0.1% formic acid
VALUE_KIND: RP-LC retention time (s)
Report the value in s with no unit label.

Previously resolved entries follow.
Cc1ccc(CNC(=O)c2cccc(C3CCCN(C(=O)NC(C)C)C3)c2)o1 (stereo not given)	833
CN(C)c1ccc(C(CNC(=O)COc2ccc(Cl)cc2)N(C)C)cc1 (stereo not given)	683
O=C(c1ccc(-c2cccnc2)nc1)N1CCN(c2ccccc2F)CC1	688
CN(C)C(CNC(=O)c1cc(=O)c2ccccc2o1)c1ccccc1Cl (stereo not given)	650
CCc1ccc(/C=C2/SC(=S)NC2=O)cc1	1070
N#Cc1cccc(C(=O)N2CCOc3ccccc32)c1	843

Record request: RP-LC retention time value, item `O=C(Nc1cc(Cl)ccc1F)c1cnc(-c2ccc(F)cc2)nc1-c1ccncc1`
1050

For the compound shown here, COc1ccccc1C(=O)NC1CCN(c2ccc(C)cc2)C1=O (stereo not given) , give the reported RP-LC retention time.
870

What measured RP-LC retention time goes with O=C(NCCN1CCCC1)C1CCN(c2cnn(CC3CC3)c(=O)c2)C1 (stereo not given) ?
577

Entry `COC(=O)c1c(C)[nH]c(C(=O)N2CCC(CC(=O)NCc3cccc(F)c3)CC2)c1C` has what RP-LC retention time?
735

* * *

TEST: gradient 5% acetonitrile 3 min, to 50% in 2 min, to 85% in 15 min, held 3 min, 100 µL/min
ASSAY_CONTEXT: column: Zorbax Extend-C18 2.1 x 50 mm; eluents: water / acetonitrile, 0.1% formic acid
Each entry below lists one item and its recorded RP-LC retention time value.
Response body: numeric value in s, unit text excluded.

Recorded RP-LC retention time, per entry:
COc1ccc(S(=O)(=O)N2CCC(C(=O)NCc3csc(-c4ccccc4)n3)CC2)cc1	885
Cc1ccc(Cn2c(=O)c(N3CCC(NC(=O)NCC4CCCO4)CC3)nc3cccnc32)cc1 (stereo not given)	929
Cc1ccc(-c2csc(NC(=O)C(C)(C)C)n2)cc1	1080
Cc1cc(C)cc(Oc2nccn3c(=O)n(CC(=O)Nc4ccccc4C)nc23)c1	838
O=C(c1ccc(-n2cnnn2)cc1)N1CCCc2ccccc21	734
O=C(Cn1c(=O)oc2ccccc21)N1CCC2(CC1)NCCc1c2[nH]c2ccccc12	597
COc1ccc(CC(=O)N2CCN(c3ccc(-c4nc(C)cs4)cn3)CC2)cc1	851
Cc1ccccc1N1CCN(C(=O)CCC2CCN(c3cc(NC4CC4)ncn3)CC2)CC1	768
COC(=O)c1c(NCCc2ccc(Cl)cc2)c2cc(F)ccc2[nH]c1=O	857
Cc1ccc(C)c(NC(=O)C2CCC(=O)N2S(=O)(=O)c2ccc(C)c(C)c2)c1 (stereo not given)	962

Now for a further compound.
Any idea what its RP-LC retention time is? The compound is `CCOc1ccc(-n2nc(CO)c(C(=O)NC3CCCC3)n2)cc1`
1020

* * *

TEST: gradient 5% acetonitrile 3 min, to 50% in 2 min, to 85% in 15 min, held 3 min, 100 µL/min
ASSAY_CONTEXT: column: Zorbax Extend-C18 2.1 x 50 mm; eluents: water / acetonitrile, 0.1% formic acid
Tick True if RP-LC retention time is 800 s or greater. Tick False if RP-LC retention time is less than 800 s.

CCNc1cc(N2CCC(CCC(=O)NCc3ccccc3Cl)CC2)ncn1	False
O=C(NCC1CCN(c2ncccn2)CC1)c1ccc(Br)o1	False
CC(CCc1ccccc1)NC(=O)Cn1cccc1-c1nc(-c2ccc3c(c2)OCO3)no1 (stereo not given)	True
c1ccc(-c2nc(-c3ccncc3)no2)c(OC2CCNC2)c1 (stereo not given)	False
COc1cc(OC)c(NC(=O)C2CCN(C(=O)c3cc(-c4ccncc4)n[nH]3)CC2)cc1Cl	False

# check: RP-LC retention time of `COc1ccc(CN(Cc2ccccc2)Cc2cc(=O)n3cc(Cl)ccc3n2)cc1` is greater than or equal to 800 s
False

Say whether `O=C(NC1(c2nc(-c3cccnc3)no2)CCCCC1)c1ccc(F)c(Cl)c1` shows RP-LC retention time of 800 s or more.
True

* * *

TEST: gradient 5% acetonitrile 3 min, to 50% in 2 min, to 85% in 15 min, held 3 min, 100 µL/min
ASSAY_CONTEXT: column: Zorbax Extend-C18 2.1 x 50 mm; eluents: water / acetonitrile, 0.1% formic acid
Please use TRUE for RP-LC retention time under 800 s and FALSE for everything else, ties included.

Check out these entries, answers already filled in.
Nc1ccccc1C(=O)Nc1ccc(Cl)cc1Cl	FALSE
COc1ccccc1-n1nnc(C(=O)N2CCc3ccccc32)c1-c1ccccn1	FALSE
CCS(=O)(=O)Nc1ccc2nc(N3CCN(c4ccc(F)cc4)CC3)cc(C(=O)O)c2c1	TRUE
Cc1oc2ncn(CC(=O)N3CCCc4ccccc43)c(=O)c2c1C	FALSE
COc1cccc(CC(=O)NC(CC(C)C)C(=O)Nc2nc3ccccc3[nH]2)c1 (stereo not given)	TRUE
Cc1noc(CNC(=O)Cn2cnc3ccccc3c2=O)n1	TRUE

API: query returns whether the molecule falls strictly under 800 s in RP-LC retention time. Query: Cc1nn(-c2ccccc2)c2nc(N3CCCC(C(=O)Nc4cccc(Br)c4)C3)sc12 (stereo not given)
FALSE

Answer whether the molecule CC1Oc2ccc(-c3csc(NC(=O)C(C)(C)C)n3)cc2NC1=O (stereo not given) has RP-LC retention time strictly less than 800 s
FALSE

Item `CCCOc1ccc(C(=O)Nc2cnn(CC)c(=O)c2N2CCOCC2)cc1` : RP-LC retention time beneath 800 s, strictly?
FALSE

* * *

TEST: gradient 5% acetonitrile 3 min, to 50% in 2 min, to 85% in 15 min, held 3 min, 100 µL/min
ASSAY_CONTEXT: column: Zorbax Extend-C18 2.1 x 50 mm; eluents: water / acetonitrile, 0.1% formic acid
Classification scheme (RP-LC retention time): low bracket (below 700 s), middle bracket (700 s to below 900 s), high bracket (900 s or more)

COCCNC(=O)C1CCCN(c2cnc3nccnc3c2)C1 (centres undefined)	low bracket
COc1cc(C(=O)N2CCN(c3cc(C)n4cnnc4n3)CC2)cc(OC)c1OC	low bracket

Consider CC(C)C(C(=O)O)N1C(=O)c2cccc3cccc(c23)C1=O (centres undefined) . To which RP-LC retention time class does it belong?
middle bracket

Sort CC1(C(=O)NCc2ccccc2)Cn2cnc(C(=O)N3CCOCC3)c2C(=O)N1C1CC1 (centres undefined) into one of the categories.
low bracket

# bin lookup: classify CC(C)COc1ccc(C(=O)N(Cc2ccc(Br)o2)C2CCS(=O)(=O)C2)cc1 (centres undefined) by its RP-LC retention time
high bracket

For this molecule, which bin applies? `CC(C)c1noc(C2(NC(=O)c3ccoc3)CCCCC2)n1`
middle bracket

Bin this entry: CC(=O)N1c2ccc(S(=O)(=O)N3CCCC3)cc2CC1C(=O)NCCc1ccccc1C (centres undefined)
middle bracket

Please indicate the class for `CC(=O)N[C@@H](Cc1c[nH]c2ccccc12)C(=O)OCc1cc(C(F)(F)F)cc(C(F)(F)F)c1` based on its RP-LC retention time.
high bracket

Band for the recorded RP-LC retention time of `Cc1ccc(-c2nnc(Cc3nc(-c4ccc5c(c4)OCO5)no3)o2)cc1C` ?
high bracket

Any idea which band `Cc1cc(C(=O)N2CC(F)(F)C[C@H]2c2nc(C)no2)on1` is in?
middle bracket

Assign a bin to `O=C(Nc1ccc2c(c1)OCO2)N(Cc1ccsc1)CC(F)(F)F`
middle bracket

Kindly state the category for this molecule: `Cc1ccc(NC(=O)Cn2c(C)nc3cc4c(cc32)OCCO4)cc1C`
low bracket

Looking at `CCCCN1CCN(Cc2nc(-c3ccc(N4CCOCC4)nc3)no2)CC1` , which class would you pick?
low bracket

Band for the recorded RP-LC retention time of O=C(NCCCN1CCOCC1)C1CCCN(c2nccnc2Sc2ccccc2)C1 (centres undefined) ?
low bracket

Form: Item = `O=C(CN1CCN(Cc2ccc(F)cc2)C1=O)NCc1cc(F)ccc1F` ; Class = ?
middle bracket

For `Cc1ccc2c(Cl)c(C(=O)N3CCN(c4ccccn4)CC3)sc2c1` , which RP-LC retention time bin applies?
middle bracket

Into which category would you place `CC(C)n1cnc2cc(CNC(=O)c3cccs3)ccc21` ?
low bracket

Each molecule maps to one class by RP-LC retention time. Which class for CN1C(=O)C(C)(C(=O)Nc2ccccc2Cl)Oc2cccnc21 (centres undefined) ?
middle bracket

Assign a bin to `Cc1coc2cc3oc(=O)c(CC(=O)N[C@H](Cc4c[nH]c5ccccc45)C(=O)O)c(C)c3cc12`
middle bracket

Which of the defined bands does the recorded RP-LC retention time of `COc1cccc(-c2noc(NC3CC3)n2)c1` sit within?
middle bracket

Where would `Cc1cc(C(=O)Nc2nnc(-c3ccn(C)n3)o2)c(C)o1` land among the classes by reported RP-LC retention time?
low bracket

Band for O=C(c1ccc(CS(=O)c2ccccc2)o1)N1CCN(c2ccccn2)CC1 (centres undefined) ?
low bracket
